- TARGET_ENTITY: WDR5 (Homo sapiens (Human))
- EXPERIMENTAL_PROTOCOL: Surface Plasmon Resonance (SPR) assay, KD and residence time
- Type: binding
- STUDY_CONDITIONS: surface plasmon resonance (SPR) assay; read-out: WDR5 binding affinity (KD)
MEASUREMENT_TYPE: pKd
Keep it numeric: pKd is minus log10 of the concentration in mol/L.

COMPOUND	TARGET_ENTITY	MEASUREMENT_TYPE	MEASUREMENT
CN(C)[C@@H]1CCN(c2cc(F)c(-c3cnc(N4CCOCC4)nc3)cc2NC(=O)c2cc(Cl)cc(Cl)c2)C1 [Example 168]	WDR5 (Homo sapiens (Human))	pKd	7.52
CC1CN(c2cc(F)c(-c3ccc(N4CCOCC4)nc3)cc2NC(=O)c2c[nH]c(=O)cc2C(F)F)CCN1C (stereo in doubt) [Example 331]	WDR5 (Homo sapiens (Human))	pKd	8.70
CN(C)[C@@H]1CCN(c2cc(F)c(-c3ccc(O)nc3)cc2NC(=O)c2c[nH]c(=O)cc2C(F)(F)F)C1 [Example 237]	WDR5 (Homo sapiens (Human))	pKd	8.03

Could you please provide reported pKd for CC1CN(c2cc(F)c(-c3cnc(N4CCOCC4)nc3)cc2NC(=O)c2ccn(C)n2)CCN1C (stereo in doubt) [Example 192] ? Thanks!
5.90

Could you please provide reported pKd for C[C@@H]1CN(c2cc(F)c(-c3ccccc3CNC3CCCCC3)cc2NC(=O)c2c[nH]c(=O)cc2C(F)(F)F)C[C@H](C)N1C [Example 67] ? Thanks!
8.32

Could you please provide reported pKd for C[C@@H]1CN(c2cc(F)c(-c3cnc(N4CCNCC4)nc3)cc2NC(=O)c2c[nH]c(=O)cc2C(F)(F)F)C[C@H](C)N1C [Example 158] ? Thanks!
9.46

Could you please provide reported pKd for CC(C)CN1CC=C(c2cc(NC(=O)c3c[nH]c(=O)cc3C(F)(F)F)c(N3C[C@@H](C)N(C)[C@@H](C)C3)cc2F)CC1 [Example 150] ? Thanks!
8.05

Could you please provide reported pKd for C[C@@H]1CN(c2cc(F)c(C3=CC4CCC(C3)N4)cc2NC(=O)c2c[nH]c(=O)cc2C(F)(F)F)C[C@H](C)N1C (stereo partly shown) [Example 330] ? Thanks!
8.24

Could you please provide reported pKd for C[C@@H]1CN(c2cc(F)c(-c3ccc(Cl)cc3)cc2NC(=O)c2c[nH]c(=O)cc2C(F)(F)F)C[C@H](C)N1C [Example 147] ? Thanks!
8.35

----------
- TARGET_ENTITY: WDR5 (Homo sapiens (Human))
- EXPERIMENTAL_PROTOCOL: Surface Plasmon Resonance (SPR) assay, KD and residence time
- Type: binding
- STUDY_CONDITIONS: surface plasmon resonance (SPR) assay; read-out: WDR5 binding affinity (KD)
The following molecules are listed with their measured Kd values.

MOLECULE	MEASUREMENT_TYPE	MEASUREMENT
C[C@@H]1CN(c2cc(F)c(-c3ccnc(OCC4CCC4)c3)cc2NC(=O)c2c[nH]c(=O)cc2C(F)(F)F)C[C@H](C)N1C	Kd	4.32 nM
C[C@@H]1CN(c2cc(F)c(C3CN=C(N4CCOCC4)NC3)cc2NC(=O)c2c[nH]c(=O)cc2C(F)(F)F)C[C@H](C)N1C (stereo partly drawn)	Kd	275 nM

Could you please provide reported Kd for Cc1nc(C(=O)Nc2cc(-c3cnc(N4CCOCC4)nc3)c(F)cc2N2CCN(C)C(C)C2)cs1 (stereo in doubt) ? Thanks!
113 nM

Could you please provide reported Kd for CC1CN(c2cc(F)c(-c3ccc(N4C[C@@H](C)O[C@@H](C)C4)nc3)cc2NC(=O)c2c[nH]c(=O)cc2C(F)(F)F)CCN1C (stereo in doubt) ? Thanks!
1.97 nM

Could you please provide reported Kd for C[C@@H]1CN(c2cc(F)c(-c3ccc(C#N)nc3)cc2NC(=O)c2c[nH]c(=O)cc2C(F)(F)F)C[C@H](C)N1C ? Thanks!
2.43 nM

Could you please provide reported Kd for C[C@@H]1CN(c2cc(F)c(-c3cnc(N4CCOCC4)nc3)cc2NC(=O)c2cccc(C(F)(F)F)c2)C[C@H](C)N1C ? Thanks!
40.2 nM

----------
- TARGET_ENTITY: WDR5 (Homo sapiens (Human), UniProt P61964)
- EXPERIMENTAL_PROTOCOL: Surface Plasmon Resonance (SPR) assay, KD and residence time
- Assay type: binding
- STUDY_CONDITIONS: surface plasmon resonance (SPR) assay; read-out: WDR5 binding affinity (KD)
MEASUREMENT_TYPE: pKd
Keep it numeric: pKd is minus log10 of the concentration in mol/L.

Below: 3 compounds and their reported pKd.
COMPOUND	TARGET_ENTITY	MEASUREMENT_TYPE	MEASUREMENT
CN(C)[C@@H]1CCN(c2cc(F)c(-c3ccc(N4CCOCC4)cc3)cc2NC(=O)c2cc(Cl)cc(Cl)c2)C1 [Example 169]	WDR5 (Homo sapiens (Human), UniProt P61964)	pKd	6.91
C[C@@H]1CN(c2cc(F)c(-c3cnc(N(C)[C@@H]4CCOC4)nc3)cc2NC(=O)c2c[nH]c(=O)cc2C(F)(F)F)CCN1C (stereo in doubt) [Example 362]	WDR5 (Homo sapiens (Human), UniProt P61964)	pKd	9.61
CCOC(=O)c1ccnc(N2CC=C(c3cc(NC(=O)c4c[nH]c(=O)cc4C(F)(F)F)c(N4C[C@@H](C)N(C)[C@@H](C)C4)cc3F)CC2)n1 [Example 276]	WDR5 (Homo sapiens (Human), UniProt P61964)	pKd	8.78

Could you please provide reported pKd for C[C@@H]1CN(c2cc(F)c(C3=CCN(C4COC4)CC3)cc2NC(=O)c2c[nH]c(=O)cc2C(F)(F)F)C[C@H](C)N1C [Example 235] ? Thanks!
9.03

Could you please provide reported pKd for CC1CN(c2cc(F)c(-c3cnc(N4CCOCC4)nc3)cc2NC(=O)c2ccc(F)cc2Cl)CCN1C (stereo in doubt) [Example 230] ? Thanks!
8.05

Could you please provide reported pKd for C[C@@H]1CN(c2cc(F)c(-c3cnc(N4CCOCC4)nc3)cc2NC(=O)c2cc(F)cc(F)c2)C[C@H](C)N1C [Example 160] ? Thanks!
7.57

Could you please provide reported pKd for CC1CN(c2cc(F)c(-c3cnc(C#N)nc3)cc2NC(=O)c2cn(C)c(=O)cc2C(F)F)CCN1C (stereo in doubt) [Example 218] ? Thanks!
8.50

Could you please provide reported pKd for CN(C)[C@@H]1CCN(c2cc(F)c(-c3cnc(N4CCOCC4)nc3)cc2NC(=O)c2c[nH]nc2C(F)(F)F)C1 [Example 185] ? Thanks!
7.53

----------
- TARGET_ENTITY: WDR5 (Homo sapiens (Human), UniProt P61964)
- EXPERIMENTAL_PROTOCOL: Surface Plasmon Resonance (SPR) assay, KD and residence time
- Format: binding
- STUDY_CONDITIONS: surface plasmon resonance (SPR); read-out: WDR5 binding affinity (KD)
MEASUREMENT_TYPE: log10 of Kd (log10 of the value in nM)
The base-10 logarithm of Kd, taken with Kd in nM, is what appears here.

Below: 10 compounds and their reported log10 of Kd.
COMPOUND	MEASUREMENT
C[C@@H]1CN(c2cc(F)c(-c3nc(C(=O)N(C)C4CCCCC4)cs3)cc2NC(=O)c2c[nH]c(=O)cc2C(F)(F)F)C[C@H](C)N1C	0.34
CNC(=O)c1cc(-c2cc(NC(=O)c3c[nH]c(=O)cc3C(F)F)c(N3CCN(C)C(C)C3)cc2F)ccc1F (stereo in doubt)	0.18
C[C@H]1CN(c2cc(F)c(C3=CCN(C(=O)OC4(C)CCC4)C3)cc2NC(=O)c2c[nH]c(=O)cc2C(F)F)CCN1C	0.42
CC1CN(c2cc(F)c(-c3cccc(N4CCOCC4)n3)cc2NC(=O)c2c[nH]c(=O)cc2C(F)F)CCN1C (stereo in doubt)	0.21
CN(CC1CC1)[C@@H]1CCN(c2cc(F)c(-c3cnc(N4CCOCC4)nc3)cc2NC(=O)c2c[nH]c(=O)cc2C(F)(F)F)C1	1.19
C[C@@H]1CN(c2cc(F)c(-c3cc(F)c(C(=O)N[C@@H]4CCOC4)c(F)c3)cc2NC(=O)c2c[nH]c(=O)cc2C(F)(F)F)C[C@H](C)N1C	-0.05
C[C@@H]1CN(c2cc(F)c(-c3cc(C(=O)NC(C)(C)CC(C)(C)C)c(F)cc3F)cc2NC(=O)c2c[nH]c(=O)cc2C(F)(F)F)C[C@H](C)N1C	0.72
CCCN1CC[C@@H]2CN(c3cc(F)c(-c4cnc(N5CCOCC5)nc4)cc3NC(=O)c3c[nH]c(=O)cc3C(F)(F)F)C[C@@H]21 (stereo in doubt)	0.99
C[C@@H]1CN(c2cc(F)c(-c3csc(N4CCOCC4)n3)cc2NC(=O)c2cn(C)c(=O)cc2C(F)F)C[C@H](C)N1C	0.71
C[C@@H]1CN(c2cc(F)c(C3=CCN(c4ncc(CN(C)C)cn4)CC3)cc2NC(=O)c2c[nH]c(=O)cc2C(F)(F)F)C[C@H](C)N1C	-1.02

Could you please provide reported log10 of Kd for CC1CN(c2cc(F)c(-c3cc(C(=O)NC(C)(C)CC(C)(C)C)c(F)cc3F)cc2NC(=O)c2ccc(F)cc2C(F)(F)F)CCN1C (stereo in doubt) ? Thanks!
2.24

Could you please provide reported log10 of Kd for C[C@@H]1CN(c2cc(F)c(C3=CCN(C(=O)OC4CC(F)(F)C4)C3)cc2NC(=O)c2c[nH]c(=O)cc2C(F)F)C[C@H](C)N1C ? Thanks!
0.35
